target: HLA-A*01:01_… (HLA-PEPTIDE target G10), recombinant soluble complex (human, UniProt P04439-2 25-297; P61769 21-119, enzymatically biotinylated (BirA) for screening and functional assays); experiment: scFv PPE ELISA
Reported fold binding to target pHLA over minipool of negative control pHLAs values follow for various binders
outcome.measure: fold binding to target pHLA over minipool of negative control pHLAs

- binder: "scFv R3G10-P1F06 (scFv, V domains shown) VH: QVQLVQSGAEVKKPGASVKVSCKASGYTFIGYYMHWVRQAPGQGLEWMGMIGPSDGSTSYAQKFQGRVTMTRDTSTSTVYMELSSLRSEDTAVYYCARDSSGLDPWGQGTLVTVSS VL: DIQMTQSPSSLSASVGDRVTITCRASQSISNYLNWYQQKPGKAPKLLIYKASSLESGVPSRFSGSGSGTDFTLTISSLQPEDFATYYCQQSYIIPYTFGQGTKLEIK"
  observed.measurement: "≥ 3 fold"
- binder: "scFv R3G10-P1B07 (scFv, V domains shown) VH: QVQLVQSGAEVKKPGASVKVSCKASGYTFTSYYMHWVRQAPGQGLEWMGIIHPGGGTTSYAQKFQGRVTMTRDTSTSTVYMELSSLRSEDTAVYYCARDKVYGDGFDPWGQGTLVTVSS VL: DIQMTQSPSSLSASVGDRVTITCRASQSISRWLAWYQQKPGKAPKLLIFDASRLQSGVPSRFSGSGSGTDFTLTISSLQPEDFATYYCQQAEAFPYTFGQGTKVEIK"
  observed.measurement: "≥ 3 fold"
